EXPERIMENT: Caco-2 cell permeation study
Format: in vitro ADME
CONDITION_DETAILS: human; Caco-2, 10 μM, apical pH 6.5, 2 h
Kindly state Papp A→B at 2 h, 10 μM for each of the entries shown.

>>> df
                                   molecule         recorded_metric    reported_value
0  C[C@@H](Cc1c(F)c(F)cc(F)c1F)Nc1cc[nH]c(=O)c1-c1nc2cc3c(cc2[nH]1)CN(C1CCN(C)CC1)C3=O [Compound 4]  Papp A→B at 2 h, 10 μM  < 0.2 ×10⁻⁶ cm/s
1  C[C@@H](Cc1cc(F)ccc1F)Nc1cc[nH]c(=O)c1-c1nc2cc3c(cc2[nH]1)C(=O)N(C)C3=O (stereo in doubt) [Compound 32]  Papp A→B at 2 h, 10 μM  > 0.2 ×10⁻⁶ cm/s
2  C[C@@H](Cc1c(F)c(F)cc(F)c1F)Nc1cc[nH]c(=O)c1-c1nc2cc3c(cc2[nH]1)C(=O)N(c1ccc(F)nc1)C3=O [Compound 15]  Papp A→B at 2 h, 10 μM  < 0.2 ×10⁻⁶ cm/s

# context switch: different molecule, same Papp A→B at 2 h, 10 μM
Quick one: Papp A→B at 2 h, 10 μM of CC(Cc1cc(F)ccc1F)Nc1cc[nH]c(=O)c1-c1nc2cc3c(cc2[nH]1)C(=O)N(CC(O)CO)C3=O (stereo not shown) [Compound 34] ? < 0.2 ×10⁻⁶ cm/s

====

EXPERIMENT: Phase I microsome metabolic stability, human
CONDITION_DETAILS: pH 7.4
RECORDED_METRIC: half-life at 0.5 μM

// half-life at 0.5 μM lookup, key: C[C@@H](Cc1c(F)c(F)cc(F)c1F)Nc1cc[nH]c(=O)c1-c1nc2cc3c(cc2[nH]1)CN(C1CCN(C)CC1)C3=O [Compound 4] > 2 h

====

EXPERIMENT: Rat pharmacokinetics / bioavailability
Format: in vivo
CONDITION_DETAILS: male, Sprague-Dawley, plasma, po, 10 mg/kg P.O., read-out: AUC0-1440 (converted)
RECORDED_METRIC: AUC(0-t) (ng·h/mL)
Numbers only, in ng·h/mL.

Need AUC(0-t), item CC(Cc1cc(F)ccc1F)Nc1cc[nH]c(=O)c1-c1nc2cc3c(cc2[nH]1)CNC3=O (stereo not shown) 35.5

====

EXPERIMENT: in vitro
CONDITION_DETAILS: rat, pH 7.4
RECORDED_METRIC: microsomal CLint at 0.5 μM

Param item = C[C@@H](Cc1cc(F)ccc1F)Nc1cc[nH]c(=O)c1-c1nc2cc3c(cc2[nH]1)C(=O)N(C)C3=O (stereo in doubt) ; retrieve measured microsomal CLint at 0.5 μM. < 5 µL/min/mg

====

ASSAYED_TARGET: hERG potassium channel current expressed in HEK293 cells (Homo sapiens)
Sequence (Q12809 whole entry): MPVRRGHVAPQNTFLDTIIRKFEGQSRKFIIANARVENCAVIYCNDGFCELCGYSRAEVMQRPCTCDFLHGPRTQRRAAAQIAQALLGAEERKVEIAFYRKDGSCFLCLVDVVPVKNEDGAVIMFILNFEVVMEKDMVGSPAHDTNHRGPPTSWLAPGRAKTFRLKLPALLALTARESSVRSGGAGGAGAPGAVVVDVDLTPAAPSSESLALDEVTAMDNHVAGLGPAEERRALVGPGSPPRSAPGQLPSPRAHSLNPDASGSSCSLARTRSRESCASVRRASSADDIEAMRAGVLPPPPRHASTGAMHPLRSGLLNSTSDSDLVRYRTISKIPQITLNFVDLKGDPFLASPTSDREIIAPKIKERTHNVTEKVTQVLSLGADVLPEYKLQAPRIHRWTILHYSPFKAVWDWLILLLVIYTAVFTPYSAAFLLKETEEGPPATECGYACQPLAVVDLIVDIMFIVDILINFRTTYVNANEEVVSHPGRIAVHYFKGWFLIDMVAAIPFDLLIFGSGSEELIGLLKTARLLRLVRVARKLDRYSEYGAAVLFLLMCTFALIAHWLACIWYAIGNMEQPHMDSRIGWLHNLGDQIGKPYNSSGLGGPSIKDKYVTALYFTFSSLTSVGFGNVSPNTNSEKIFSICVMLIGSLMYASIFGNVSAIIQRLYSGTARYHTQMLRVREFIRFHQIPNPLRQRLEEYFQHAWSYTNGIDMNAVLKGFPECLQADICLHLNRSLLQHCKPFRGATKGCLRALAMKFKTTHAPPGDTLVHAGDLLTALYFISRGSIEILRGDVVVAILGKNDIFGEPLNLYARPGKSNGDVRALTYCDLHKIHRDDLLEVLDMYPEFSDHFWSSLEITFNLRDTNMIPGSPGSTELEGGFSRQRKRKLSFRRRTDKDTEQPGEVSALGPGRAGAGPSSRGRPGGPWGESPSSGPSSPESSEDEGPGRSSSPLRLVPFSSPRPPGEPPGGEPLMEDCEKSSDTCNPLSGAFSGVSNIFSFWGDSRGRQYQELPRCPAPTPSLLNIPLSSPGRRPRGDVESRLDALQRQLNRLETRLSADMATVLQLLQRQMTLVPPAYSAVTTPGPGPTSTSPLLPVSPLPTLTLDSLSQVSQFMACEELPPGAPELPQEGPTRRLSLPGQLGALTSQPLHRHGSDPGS
EXPERIMENT: hERG automatic patch clamp (PatchXpress 7000A)
RECORDED_METRIC: pIC50
Give bare numbers, as −log10 of the molar value.

Which pIC50 reading was recorded for the molecule C[C@@H](Cc1c(F)c(F)cc(F)c1F)Nc1cc[nH]c(=O)c1-c1nc2cc3c(cc2[nH]1)CN(C1CCN(C)CC1)C3=O [Compound 4] ? 5.56
